Experiment: DMPC liposome clearance by lipid-free apolipoproteins (A325)
Format: biochemical
Conditions: lipid-free apolipoprotein, protein:lipid 1:75, A325 over 90 minutes
PARAMETER: Rate of DMPC clearance Ka (s⁻¹)
Write the number in s⁻¹ without appending the unit.

MOLECULE	Rate of DMPC clearance Ka [s⁻¹]
PP126: novel truncated apolipoprotein variant SEQ ID NO: 878 (protein) KVEQAVETEPEPELRQQTEWQSGQRWELALGRFWDYLRWVQTLSEQVQEELLSSQVTQELRALMDETMKELKAYKSELEEQLTPVAEETRARLSKELQAAQARLGADMEDVCGRLVQYRGEVQAMLGQSTEELRVRLASHLRKLRKRLLRDADDLQKRLAVYQAGAREGAERGLSAIRERLGDRLDEVKEQVAAKLEEQAQQIRLQAEAFQARLKPLVEDMQRQWAGLVEKVQAAVGTSAAPVPSDNH	0.0383

Problem: // Rate of DMPC clearance Ka lookup, key: PP125: novel truncated apolipoprotein variant SEQ ID NO: 877 (protein) KVEQAVETEPEPELRQQTEWQSGQRWELALGRFWDYLRWVQTLSEQVQEELLSSQVTQELRALMDETMKELKAYKSELEEQLTPVAEETRARLSKELQAAQARLGADMEDVCGRLVQYRGEVQAMLGQSTEELRVSLASHLRKLRKRLLRDADDLQKRLAVYQAGAREGAERGLSAIRERLGPLVEQGRVRAATVGSLAGQPLQERAQAWGERLRARMEEMGSRTRDRLDEVKEQEAAKLEEQAQQIRLQAEAFQARLKPLVEDMQRQWAGLVEKVQAAVGTSAAPVPSDNH
Solution: 0.0247

Problem: // Rate of DMPC clearance Ka lookup, key: PP128: novel truncated apolipoprotein variant SEQ ID NO: 880 (protein) KVEQAVETEPEPELRQQTEWQSGQRWELALGRFWDYLRWVQTLSEQVQEELLSSQVTQELRALMDETMKELKAYKSELEEQLTPVAEETRARLSKELQAAQARLGADMEDVCGRLVQYRGEVQAMLGQSTEELRVSLASHLRKLRKRLLRDADDLQKRLAVYQAGAREGAERGLSAIRERLGDRLDEVKEQEAAKLEEQAQQIRLQAEAFQARLKPLVEDMQRQWAGLVEKVQAAVGTSAAPVPSDNH
Solution: 0.0149

These measurements were taken from patent US20250319190A1.
